- ASSAY NAME: growth suppression of yeast trafficking mutant, preliminary HTS, modulators of trafficking downstream of Golgi apparatus project, 1536-format plate, OD 615 nm (AID 637)
- PROTOCOL CONDITIONS: yeast transport mutant growth, absorbance 615 nm, 18 h
Calls of active or inactive are those of the source. No stated cut-off is given here; in the data, active means inhibition above about 30%; inactive means the rest.
Please reply with one of these outcomes: active, inactive

Examples with answers:
{"COMPOUND": "O=C(C1CC1)N1CCc2cc(S(=O)(=O)N(CCO)Cc3ccccc3)ccc21", "CLASS NAME": "inactive"}
{"COMPOUND": "COc1ccc(C)cc1S(=O)(=O)N(C)CC(=O)Nc1ccc2c(c1)OCCO2", "CLASS NAME": "inactive"}
{"COMPOUND": "COc1ccc2cnn(-c3ccccc3)c(=O)c2c1OC", "CLASS NAME": "inactive"}

Hey, what did the test say about "Cc1cc(C)c2nc(N)sc2c1" ?
inactive

Hey, what did the test say about "Cc1ccccc1NS(=O)(=O)c1cc(S(C)(=O)=O)ccc1Cl" ?
inactive

Hey, what did the test say about O=C(CN1C(=O)C2CC=C(Cl)CC2C1=O)Nc1ccc(C(=O)O)cc1 (stereo not drawn) ?
inactive
